meta.source: patent US20240190849A1

Item-by-item account of Kd
# study target: FGFR2 (Homo sapiens, UniProt P21802)
# Construct: made in house; host or cells: E. coli derived from BL21, infected with T7 phage
# Sequence (P21802 22-821): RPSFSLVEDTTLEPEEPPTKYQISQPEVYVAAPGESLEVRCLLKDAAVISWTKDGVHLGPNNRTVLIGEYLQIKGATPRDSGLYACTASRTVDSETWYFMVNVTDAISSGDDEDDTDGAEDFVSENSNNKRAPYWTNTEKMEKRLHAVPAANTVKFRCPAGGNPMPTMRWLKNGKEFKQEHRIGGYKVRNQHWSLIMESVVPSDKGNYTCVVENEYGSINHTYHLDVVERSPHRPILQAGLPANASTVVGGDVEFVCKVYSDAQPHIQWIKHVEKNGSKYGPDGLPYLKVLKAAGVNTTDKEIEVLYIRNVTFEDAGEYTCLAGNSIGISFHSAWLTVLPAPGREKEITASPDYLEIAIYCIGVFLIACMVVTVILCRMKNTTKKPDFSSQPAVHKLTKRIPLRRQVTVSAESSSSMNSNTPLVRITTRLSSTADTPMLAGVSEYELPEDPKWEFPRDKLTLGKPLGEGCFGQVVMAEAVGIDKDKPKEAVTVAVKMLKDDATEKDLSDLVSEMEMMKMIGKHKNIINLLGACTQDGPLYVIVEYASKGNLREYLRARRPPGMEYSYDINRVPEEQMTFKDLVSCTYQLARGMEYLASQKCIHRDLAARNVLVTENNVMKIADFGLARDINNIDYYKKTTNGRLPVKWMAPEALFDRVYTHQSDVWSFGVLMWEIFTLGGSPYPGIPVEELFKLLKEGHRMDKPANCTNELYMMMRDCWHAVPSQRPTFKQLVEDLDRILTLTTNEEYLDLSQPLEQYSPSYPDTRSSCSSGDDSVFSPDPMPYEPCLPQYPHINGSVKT
# experimental protocol: Kinase binding assay (kinase-tagged T7 phage, affinity beads, qPCR readout), FGFR2
# condition description: FGFR binding data

These recorded examples may help you get a feel for the data.
Tell me the measured Kd of `C=CC(=O)Nc1ccc2c(c1)c(C)cn2-c1nc(Nc2ccc(CN3CCOCC3)c(C)c2)ncc1Cl` , please.
0.1 to 100 nM

Tell me the measured Kd of `C=CC(=O)Nc1ccc2c(c1)c(C)cn2-c1nc(Nc2cn(C[C@@H](C)O)nc2C)ncc1F` , please.
0.1 to 100 nM

Tell me the measured Kd of `Cc1cn(-c2nc(Nc3cnn(C)c3C)ncc2F)c2ncc(NC(=O)/C=C/CN(C)C)cc12` , please.
0.1 to 100 nM

***
Tell me the measured Kd of `C=CC(=O)Nc1ccc2c(c1)c(C)cn2-c1nc(Nc2ccc(CN3CCN(C)CC3)c(F)c2)ncc1Cl` , please.
0.1 to 100 nM

Tell me the measured Kd of `C=CC(=O)Nc1ccc2c(c1)c(C)cn2-c1nc(Nc2cnn(CC(C)(C)O)c2C)ncc1F` , please.
0.1 to 100 nM

Tell me the measured Kd of `C=CC(=O)Nc1cc2c(C)cn(-c3nc(Nc4ccc(N5CCOCC5)cc4)ncc3Cl)c2cc1C` , please.
> 1000 nM

Tell me the measured Kd of `C=CC(=O)Nc1ccc2c(-c3ccnc(Nc4cn(CC(F)F)nc4C)n3)cn(C)c2c1` , please.
0.1 to 100 nM

Tell me the measured Kd of `C=CC(=O)Nc1ccc2c(c1)c(C)cn2-c1nc(Nc2cnn(C)c2C)ncc1F` , please.
0.1 to 100 nM

Tell me the measured Kd of `C=CC(=O)Nc1cnc2c(c1)c(C)cn2-c1nc(Nc2ccn(C)n2)ncc1C` , please.
0.1 to 100 nM

Tell me the measured Kd of `C=CC(=O)Nc1ccc2c(-c3ccnc(Nc4cn(CC)nc4C)n3)cn(C)c2c1` , please.
100 to 250 nM

Tell me the measured Kd of `C=C(C)C(=O)Nc1cnc2c(c1)c(C)cn2-c1nc(Nc2ccn(C)n2)ncc1C` , please.
> 1000 nM

Tell me the measured Kd of `C=CC(=O)Nc1ccc2c(c1)c(C)nn2-c1ccnc(Nc2ccnn2C)n1` , please.
> 1000 nM

Tell me the measured Kd of `C#CC(=O)Nc1ccc2c(c1)c(C)cn2-c1nc(Nc2ccnn2C)ncc1F` , please.
0.1 to 100 nM

Tell me the measured Kd of `C=CC(=O)Nc1ccc2c(c1)c(C)cn2-c1ncnc(Nc2cn(C)nc2C)n1` , please.
250 to 1000 nM

Tell me the measured Kd of `C#CC(=O)Nc1ccc2c(c1)c(C)cn2-c1nc(Nc2cnn(CCO)c2)ncc1F` , please.
0.1 to 100 nM

Tell me the measured Kd of `C=CC(=O)Nc1ccc2c(c1)c(C)cn2-c1nc(Nc2cnnn2C)ncc1Cl` , please.
0.1 to 100 nM

Tell me the measured Kd of `C=CC(=O)Nc1ccc2c(c1)c(C)cn2-c1nc(Nc2cccnc2F)ncc1F` , please.
0.1 to 100 nM
